- system_name: Aromatase (Homo sapiens)
- Sequence (P11511 whole entry): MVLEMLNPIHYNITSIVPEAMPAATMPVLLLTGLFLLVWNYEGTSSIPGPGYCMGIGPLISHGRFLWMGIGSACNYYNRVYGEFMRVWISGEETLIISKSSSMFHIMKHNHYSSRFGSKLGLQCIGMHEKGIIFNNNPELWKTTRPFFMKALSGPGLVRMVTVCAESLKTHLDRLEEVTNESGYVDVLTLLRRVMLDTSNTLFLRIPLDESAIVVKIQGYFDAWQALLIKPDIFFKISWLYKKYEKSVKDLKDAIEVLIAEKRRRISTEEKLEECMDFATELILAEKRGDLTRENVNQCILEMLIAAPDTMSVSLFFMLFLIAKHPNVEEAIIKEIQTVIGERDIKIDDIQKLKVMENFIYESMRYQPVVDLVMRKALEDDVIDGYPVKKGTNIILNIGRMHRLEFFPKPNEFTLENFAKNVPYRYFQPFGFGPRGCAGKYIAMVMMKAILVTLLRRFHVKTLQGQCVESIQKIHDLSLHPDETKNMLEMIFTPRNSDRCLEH
measured_parameter: IC50 (nM)

>  <mol>
CC(C)(O)c1cncc(-c2nc3ccc(F)cc3n2C2CC2)c1

>  <unit_info>
nM

>  <IC50>
1020

$$$$

1: Fc1cncc(-c2nc3cc(F)c(F)cc3n2C2CC2)c1
2: CC(C)(O)c1cncc(-c2nc3cc(F)c(F)cc3n2C2CC2)c1
In: // select label with min value of measured IC50 from [ 1 , 2 ] // output: label of the selected item
Out: 2

====

- system_name: Sodium channel protein type 5 subunit alpha (Homo sapiens, UniProt Q14524)
- Sequence (Q14524 whole entry): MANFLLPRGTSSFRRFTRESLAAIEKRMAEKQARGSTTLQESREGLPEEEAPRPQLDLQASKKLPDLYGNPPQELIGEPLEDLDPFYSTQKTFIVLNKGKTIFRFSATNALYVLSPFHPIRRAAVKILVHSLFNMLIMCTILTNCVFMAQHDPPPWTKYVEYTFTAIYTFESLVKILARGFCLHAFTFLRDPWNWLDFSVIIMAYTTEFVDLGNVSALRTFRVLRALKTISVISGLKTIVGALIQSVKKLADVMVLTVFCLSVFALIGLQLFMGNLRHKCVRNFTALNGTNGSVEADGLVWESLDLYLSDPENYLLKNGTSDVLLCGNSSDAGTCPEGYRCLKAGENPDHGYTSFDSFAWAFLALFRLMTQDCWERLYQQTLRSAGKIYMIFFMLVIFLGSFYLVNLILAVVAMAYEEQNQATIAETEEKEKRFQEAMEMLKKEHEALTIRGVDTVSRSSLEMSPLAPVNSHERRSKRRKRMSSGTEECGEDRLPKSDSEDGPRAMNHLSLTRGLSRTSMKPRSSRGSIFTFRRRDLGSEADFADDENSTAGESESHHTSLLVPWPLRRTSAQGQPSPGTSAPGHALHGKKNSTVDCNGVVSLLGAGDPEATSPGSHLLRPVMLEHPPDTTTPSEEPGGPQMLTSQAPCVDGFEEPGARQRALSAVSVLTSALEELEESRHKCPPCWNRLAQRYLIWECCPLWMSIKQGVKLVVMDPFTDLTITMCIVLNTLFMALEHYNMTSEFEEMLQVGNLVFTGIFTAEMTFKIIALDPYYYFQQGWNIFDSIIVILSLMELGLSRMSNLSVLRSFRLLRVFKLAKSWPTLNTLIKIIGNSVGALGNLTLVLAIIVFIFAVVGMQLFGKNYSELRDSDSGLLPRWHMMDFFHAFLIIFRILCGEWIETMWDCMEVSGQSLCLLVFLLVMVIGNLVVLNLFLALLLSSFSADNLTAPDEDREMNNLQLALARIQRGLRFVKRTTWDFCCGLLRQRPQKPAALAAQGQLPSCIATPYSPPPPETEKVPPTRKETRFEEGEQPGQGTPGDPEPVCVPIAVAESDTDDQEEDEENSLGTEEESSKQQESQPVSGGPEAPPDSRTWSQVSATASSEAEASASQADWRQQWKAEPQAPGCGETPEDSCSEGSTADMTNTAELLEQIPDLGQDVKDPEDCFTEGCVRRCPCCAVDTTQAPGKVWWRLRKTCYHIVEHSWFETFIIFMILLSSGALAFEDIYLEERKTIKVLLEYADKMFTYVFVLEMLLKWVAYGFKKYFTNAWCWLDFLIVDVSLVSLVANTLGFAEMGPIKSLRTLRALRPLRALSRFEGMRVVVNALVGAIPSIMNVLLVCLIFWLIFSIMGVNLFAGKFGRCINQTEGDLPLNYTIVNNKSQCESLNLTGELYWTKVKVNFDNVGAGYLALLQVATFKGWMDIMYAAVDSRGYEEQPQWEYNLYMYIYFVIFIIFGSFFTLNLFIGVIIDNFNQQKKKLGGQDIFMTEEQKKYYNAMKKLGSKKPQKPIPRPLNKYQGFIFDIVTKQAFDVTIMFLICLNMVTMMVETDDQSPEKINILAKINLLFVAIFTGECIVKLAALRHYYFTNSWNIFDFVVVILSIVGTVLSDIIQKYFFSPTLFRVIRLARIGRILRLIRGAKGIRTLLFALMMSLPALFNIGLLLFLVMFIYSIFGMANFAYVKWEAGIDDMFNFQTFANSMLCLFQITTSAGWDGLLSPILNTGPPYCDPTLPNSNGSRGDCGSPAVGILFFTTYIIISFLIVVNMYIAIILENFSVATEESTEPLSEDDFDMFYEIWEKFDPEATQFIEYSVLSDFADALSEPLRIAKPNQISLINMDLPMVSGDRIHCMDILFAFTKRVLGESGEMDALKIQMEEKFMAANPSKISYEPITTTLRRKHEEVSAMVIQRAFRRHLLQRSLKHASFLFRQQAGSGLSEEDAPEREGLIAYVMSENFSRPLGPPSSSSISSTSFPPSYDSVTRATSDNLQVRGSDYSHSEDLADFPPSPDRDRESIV
- assay_remarks: Block of Nav1.5 ion channel in functional assay (unknown origin)
pIC50: −log10 of the molar value.
measured_parameter: pIC50

In: # get_value(readout='pIC50', item= "Fc1cncc(-c2nc3cc(F)c(F)cc3n2C2CC2)c1" )
Out: < 4.52

====

- assay_remarks: Intrinsic clearance in rat liver microsomes at […] incubated for 10 mins before NADPH addition by LC/MS method
- Type: ADME
- experimental_setup: read-out: CLH
measured_parameter: CLint scaled (mL/min/kg)

>  <mol>
Fc1ccc2nc(-c3cccnc3)n(C3CC3)c2c1

>  <readout_number>
28

$$$$

a: CC1(n2c(-c3cccnc3)nc3ccc(F)cc32)CC1
b: Cn1c(-c2cccnc2)nc2ccc(F)cc21
In: Of the two listed items, a and b , which carries the larger CLint scaled figure? When you have decided, please share the label of that item.
Out: a

====

- system_name: Cytochrome P450 11B1, mitochondrial (Homo sapiens, UniProt P15538)
- Sequence (P15538 whole entry): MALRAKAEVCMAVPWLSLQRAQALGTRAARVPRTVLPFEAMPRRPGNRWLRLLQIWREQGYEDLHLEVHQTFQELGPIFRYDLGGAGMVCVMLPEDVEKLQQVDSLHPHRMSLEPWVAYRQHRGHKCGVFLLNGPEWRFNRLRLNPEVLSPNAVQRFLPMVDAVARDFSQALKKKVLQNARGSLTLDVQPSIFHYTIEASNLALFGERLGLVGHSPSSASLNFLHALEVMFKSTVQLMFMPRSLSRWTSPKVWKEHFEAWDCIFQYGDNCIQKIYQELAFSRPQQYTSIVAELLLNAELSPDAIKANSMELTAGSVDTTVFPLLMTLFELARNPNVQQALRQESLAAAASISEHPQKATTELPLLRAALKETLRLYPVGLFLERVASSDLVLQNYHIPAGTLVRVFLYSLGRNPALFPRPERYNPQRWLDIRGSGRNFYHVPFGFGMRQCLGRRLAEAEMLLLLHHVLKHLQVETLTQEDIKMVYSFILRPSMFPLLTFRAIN
- assay_remarks: Inhibition of human CYP11B1 expressed in V79 cells incubated for 1 hr before 11-deoxycortisol substrate addition by HTRF-based assay
pIC50: −log10 of the molar value.
measured_parameter: pIC50

>  <mol>
Fc1cc2nc(-c3cnccc3C(F)(F)F)n(C3CC3)c2cc1F

>  <pIC50>
6.10

$$$$

P: Cc1cncc(-c2nc3cc(F)c(F)cc3n2C2CC2)c1C
Q: Fc1cc2nc(-c3cccnc3)n(C3CC3)c2cc1F
R: CC(C)n1c(-c2cccnc2)nc2ccc(F)cc21
S: N#Cc1cncc(-c2nc3cc(F)c(F)cc3n2C2CC2)c1
In: Put the items in order so that reported pIC50 rises from first to last. Answer format: list of labels, ordered as asked.
Out: R, S, Q, P
(R: 5.41, S: 5.81, Q: 6.43, P: 7.75)

P: Fc1cncc(-c2nc3cc(F)c(Cl)cc3n2C2CC2)c1
Q: Cc1ccncc1-c1nc2cc(F)c(F)cc2n1C1CC1
In: Form: Entry with minimum pIC50 (choose one): P / Q Indicate your choice by writing its label.
Out: Q
(Q: 6.14, P: 6.60)

1: COc1ccc2nc(-c3cccnc3)n(C3CC3)c2c1
2: Cc1c(F)cncc1-c1nc2cc(F)c(F)cc2n1C1CC1
In: Identify the entry with the smaller pIC50: 1 or 2 . When you have decided, please share the label of that item.
Out: 1
(1: 5.70, 2: 6.59)

====

- assay_remarks: Fraction unbound in rhesus monkey plasma at […] incubated for 4 hrs by equilibrium dialysis and LC/MS method
- Format: ADME, cell-free, Macaca mulatta
measured_parameter: fraction unbound at 4 h

I: CC(C)(O)c1cncc(-c2nc3ccc(F)cc3n2C2CC2)c1
II: Fc1cncc(-c2nc3cc(F)c(F)cc3n2C2CC2)c1
In: // compare: I vs II , metric fraction unbound at 4 h, want the smaller Please identify the chosen entry by its label.
Out: I

====

- system_name: Cytochrome P450 11B2, mitochondrial (Rattus norvegicus, UniProt P30099)
- Sequence (P30099 whole entry): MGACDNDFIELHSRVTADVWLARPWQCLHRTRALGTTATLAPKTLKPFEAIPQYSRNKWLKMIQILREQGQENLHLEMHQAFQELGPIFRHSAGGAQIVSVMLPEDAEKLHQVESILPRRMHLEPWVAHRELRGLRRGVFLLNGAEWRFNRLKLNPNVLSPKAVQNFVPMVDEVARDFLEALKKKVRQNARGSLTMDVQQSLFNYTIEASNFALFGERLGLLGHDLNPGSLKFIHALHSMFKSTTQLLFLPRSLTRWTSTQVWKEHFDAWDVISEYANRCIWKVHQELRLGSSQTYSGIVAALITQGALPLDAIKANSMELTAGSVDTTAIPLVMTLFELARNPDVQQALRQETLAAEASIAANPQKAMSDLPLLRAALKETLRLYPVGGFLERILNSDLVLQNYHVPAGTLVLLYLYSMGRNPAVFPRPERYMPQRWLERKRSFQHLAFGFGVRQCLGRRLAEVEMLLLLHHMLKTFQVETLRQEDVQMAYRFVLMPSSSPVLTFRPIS
- assay_remarks: Inhibition of rat CYP11B2 expressed in V79 cells incubated for 1 hr before 11-deoxycorticosterone substrate addition by HTRF-based assay
- Assay type: cell-based
- experimental_setup: v79, 1 h
measured_parameter: inhibition (INH)

Consider the reported inhibition (INH) for these compounds:
>  <compound>
Cc1c(F)cncc1-c1nc2cc(F)c(F)cc2n1C1CC1

>  <inhibition (INH)>
Not Active

$$$$
>  <compound>
Fc1cc2nc(-c3cccnc3)n(C3CC3)c2cc1F

>  <inhibition (INH)>
Not Active

$$$$
>  <compound>
Fc1cncc(-c2nc3cc(F)c(F)cc3n2C2CC2)c1

>  <inhibition (INH)>
Not Active

$$$$
>  <compound>
CC(C)(O)c1cncc(-c2nc3cc(F)c(F)cc3n2C2CC2)c1

>  <inhibition (INH)>
Not Active

$$$$

Please examine the following record next.
In: For the compound shown here, CC(C)(O)c1cncc(-c2nc3ccc(F)cc3n2C2CC2)c1 [MSD-CYP11B2] , give the reported inhibition (INH).
Out: Not Active

====

- system_name: Cytochrome P450 11B2, mitochondrial (Homo sapiens, UniProt P19099)
- Sequence (P19099 whole entry): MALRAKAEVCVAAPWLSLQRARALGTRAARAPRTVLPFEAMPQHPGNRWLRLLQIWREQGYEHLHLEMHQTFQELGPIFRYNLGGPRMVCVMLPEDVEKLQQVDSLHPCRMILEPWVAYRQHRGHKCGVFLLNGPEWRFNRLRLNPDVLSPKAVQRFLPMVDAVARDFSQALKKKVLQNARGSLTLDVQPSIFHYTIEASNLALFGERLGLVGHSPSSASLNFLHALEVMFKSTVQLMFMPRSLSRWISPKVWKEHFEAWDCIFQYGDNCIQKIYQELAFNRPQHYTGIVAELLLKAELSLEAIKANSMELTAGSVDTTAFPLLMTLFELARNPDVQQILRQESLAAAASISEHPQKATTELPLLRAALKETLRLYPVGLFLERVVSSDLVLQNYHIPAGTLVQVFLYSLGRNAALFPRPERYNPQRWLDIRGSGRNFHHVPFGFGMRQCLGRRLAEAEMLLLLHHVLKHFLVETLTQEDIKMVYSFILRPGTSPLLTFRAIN
- assay_remarks: Inhibition of human CYP11B2 expressed in V79 cells incubated for 1 hr before 11-deoxycorticosterone substrate addition by HTRF-based assay
measured_parameter: IC50 (nM)

Some entries whose results are on file:
>  <mol>
c1cncc(-c2nc3ccccc3n2C2CC2)c1

>  <measured_parameter>
IC50

>  <readout_number>
49

$$$$
>  <mol>
N#Cc1cc2c(cc1F)nc(-c1cccnc1)n2C1CC1

>  <measured_parameter>
IC50

>  <readout_number>
0.6

$$$$
>  <mol>
Fc1cc2nc(-c3cnccc3C(F)(F)F)n(C3CC3)c2cc1F

>  <measured_parameter>
IC50

>  <readout_number>
8.1

$$$$
>  <mol>
Cn1c(-c2cccnc2)nc2ccc(F)cc21

>  <measured_parameter>
IC50

>  <readout_number>
12

$$$$
>  <mol>
Fc1cccc2nc(-c3cccnc3)n(C3CC3)c12

>  <measured_parameter>
IC50

>  <readout_number>
107

$$$$
>  <mol>
Fc1cccc2c1nc(-c1cccnc1)n2C1CC1

>  <measured_parameter>
IC50

>  <readout_number>
219

$$$$
>  <mol>
Fc1ccc2nc(-c3cccnc3)n(C3CC3)c2c1

>  <measured_parameter>
IC50

>  <readout_number>
4

$$$$
>  <mol>
Fc1cncc(-c2nc3cc(F)c(Cl)cc3n2C2CC2)c1

>  <measured_parameter>
IC50

>  <readout_number>
0.8

$$$$
>  <mol>
N#Cc1ccc2nc(-c3cccnc3)n(C3CC3)c2c1

>  <measured_parameter>
IC50

>  <readout_number>
1.2

$$$$
>  <mol>
Cc1ccncc1-c1nc2cc(F)c(F)cc2n1C1CC1

>  <measured_parameter>
IC50

>  <readout_number>
10.2

$$$$

I: Fc1ccc2nc(-c3cccnc3)n(CC(F)(F)F)c2c1
II: Fc1cncc(-c2nc3cc(F)c(F)cc3n2C2CC2)c1
In: // max by IC50 over [ I , II ] Indicate which entry you chose by stating its label.
Out: I
